Target: T1, monkey GFRα3 expressed with a C-terminal myc-myc-hexahistidine tag (monkey (Mf), UniProt O60609 32-374 (human entry), limits assumed)
T1 construct: also called MfGFRα3-mmh; MfGFRα3-mmH
T1 chain: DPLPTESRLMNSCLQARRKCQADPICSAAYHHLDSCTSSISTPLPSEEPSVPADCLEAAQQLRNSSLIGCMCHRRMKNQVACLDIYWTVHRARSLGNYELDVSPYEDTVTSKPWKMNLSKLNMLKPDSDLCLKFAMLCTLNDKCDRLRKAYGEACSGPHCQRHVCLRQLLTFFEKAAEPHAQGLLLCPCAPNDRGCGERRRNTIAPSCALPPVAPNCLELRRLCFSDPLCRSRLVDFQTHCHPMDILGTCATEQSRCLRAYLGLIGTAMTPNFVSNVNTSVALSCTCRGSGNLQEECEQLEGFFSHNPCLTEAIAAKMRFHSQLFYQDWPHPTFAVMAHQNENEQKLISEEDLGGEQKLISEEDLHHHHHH
Test: SPR, Ab captured, 37C

- binder: "H1M2243N (antibody, V domains shown, chimeric, human variable and mouse constant domains (H1M)) VH: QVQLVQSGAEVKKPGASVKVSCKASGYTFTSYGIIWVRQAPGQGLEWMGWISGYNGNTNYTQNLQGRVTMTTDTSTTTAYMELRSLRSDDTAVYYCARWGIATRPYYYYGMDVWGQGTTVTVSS VL: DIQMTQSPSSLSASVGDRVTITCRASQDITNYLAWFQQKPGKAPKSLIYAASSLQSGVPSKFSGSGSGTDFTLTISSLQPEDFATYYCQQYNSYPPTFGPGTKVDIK"
  t1/2: "4 min"
- binder: "H4H2291S (antibody, human IgG4, V domains shown, human IgG4 Fc (H4H)) VH: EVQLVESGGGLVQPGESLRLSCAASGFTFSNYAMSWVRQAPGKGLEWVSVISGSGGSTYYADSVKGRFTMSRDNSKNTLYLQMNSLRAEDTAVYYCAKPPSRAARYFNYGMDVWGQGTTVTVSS VL: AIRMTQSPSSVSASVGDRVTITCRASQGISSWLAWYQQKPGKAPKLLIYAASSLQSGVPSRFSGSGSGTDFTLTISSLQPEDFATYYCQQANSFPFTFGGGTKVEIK"
  t1/2: "17 min"
- binder: "H4H2352S (antibody, human IgG4, V domains shown, human IgG4 Fc (H4H); also called H4H2352S-1) VH: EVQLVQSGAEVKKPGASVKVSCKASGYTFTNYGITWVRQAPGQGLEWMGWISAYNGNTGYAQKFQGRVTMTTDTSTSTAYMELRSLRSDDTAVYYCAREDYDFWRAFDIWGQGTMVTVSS VL: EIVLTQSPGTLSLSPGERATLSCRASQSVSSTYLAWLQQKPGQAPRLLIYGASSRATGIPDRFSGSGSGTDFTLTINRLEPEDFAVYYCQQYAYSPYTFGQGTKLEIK"
  t1/2: "177 min"
